Target or test system: human RAR-related Orphan Receptor gamma (RORg), RORC (gene 6097)
Measurement description: ATG_RORg_TRANS: Attagene TRANS-FACTORIAL HepG2 Assay for human RAR-related Orphan Receptor gamma (RORg) (AID 2283011)
Results filed as inconclusive are left out. The source made the active and inactive calls. How the source made its calls: active means hit-call score of the fitted dose curve at least 0.9, where 1 is the maximum; inconclusive means response in the unintended direction; inactive means score below 0.9.
The reply should be one of these categories: 1 (yes) (active), 0 (no) (inactive)

Completed entries (count: 2):
[[record]]
compound = "C=CC(=O)OCC(Br)CBr (stereo not drawn)"
target_or_test_system = "human RAR-related Orphan Receptor gamma (RORg), RORC (gene 6097)"
class_name = "1 (yes)"

[[record]]
compound = "CCOCC(=O)O"
target_or_test_system = "human RAR-related Orphan Receptor gamma (RORg), RORC (gene 6097)"
class_name = "0 (no)"


Request: Outcome? COc1c2ccoc2cc2oc(=O)ccc12
Response: 0 (no)

* * *

Measurement description: CCTE_Shafer_MEA_dev_per_network_spike_spike_number_mean: CCTE's Neural Network Formation Assay for Mean Number of Spikes in a Network Spike, Shafer Lab (AID 2284053);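 on AC50: fitted as decrease in spikes per network spike relative to DMSO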
Experimental: CCTE_Shafer_MEA_dev assay is conducted using Axion Biosystems 48 well microelectrode array (MEA) plates and Maestro recording system. Each well of the MEA plate contains a grid of 16 microelectrodes embedded in the culture surface. Electrically active cells, such as neurons, can be cultured over the electrodes, and electrical activity in these cells can be recorded extracellularly. […]
The source made the active and inactive calls. How the source made its calls: active means hit-call score of the fitted dose curve at least 0.9, where 1 is the maximum; inactive means score below 0.9.
Measured quantity: AC50

// solved cases for AC50 follow
[[record]]
molecule = "CCOC(F)(F)C(F)(F)C(F)(F)C(F)(F)F"
measured_quantity = "AC50"
assay_result = "inactive"

[[record]]
molecule = "FC(F)=C(F)OC(F)(F)C(F)(F)C(F)(F)F"
measured_quantity = "AC50"
assay_result = "inactive"

[[record]]
molecule = "CC=CC(F)(F)C(F)(F)C(F)(F)F"
measured_quantity = "AC50"
assay_result = "inactive"

[[record]]
molecule = "CN(C)c1ccc(C(=N)c2ccc(N(C)C)cc2)cc1"
measured_quantity = "AC50"
assay_result = "2.39 µM (active)"

[[record]]
molecule = "COC(F)(F)C(F)(C(F)(F)F)C(F)(F)F"
measured_quantity = "AC50"
assay_result = "inactive"


Request: So what's the measured AC50 for this one? N[C@H]1C(O)O[C@H](CO)[C@H](O)[C@@H]1O (stereo partly drawn)
Response: 25.6 µM (active)

Request: What does the data say about its AC50? Entry: CC1(C)S[C@@H]2[C@H](NC(=O)COc3ccccc3)C(=O)N2[C@H]1C(=O)O
Response: inactive

Request: // returns reported AC50 for input c1ccc2c(c1)ccc1cc3c(ccc4ccccc43)cc12
Response: inactive

* * *

Read-out: Human Leukocyte Antigen - DR isotype (HLADR), HLA-DRA (gene 3122)
Measurement description: BSK_CASM3C_HLADR: BioMAP Diversity Plus: CASM3C Assay for Human Leukocyte Antigen - DR isotype (HLADR) Biomarker Activity (AID 2283043);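 further: cell-surface HLA-DR protein level quantified by ELISA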
Condition notes: primary human coronary artery smooth muscle cells; actives raise or lower the signal
Calls of active or inactive are those of the source. Rule for the calls: active = hit-call score of the fitted dose curve at least 0.9, where 1 is the maximum; inactive = score below 0.9.
// one of t for active, f for inactive, no free text

Request: Tell me the recorded outcome of this test for c1ccc(-c2ccccn2)nc1 .
Response: f

Request: Dear colleague, could you share the recorded outcome for C/C=C\C/C=C/CCCCCCCCOC(C)=O when you have a moment?
Response: t

Request: Give the logged outcome of this assay for the following molecule: CCCCCCCCc1ccc(Nc2ccc(CCCCCCCC)cc2)cc1
Response: f

Request: Query: recorded result category for O=Nc1ccc(O)cc1 in this test
Response: f

Request: For this molecule, state the assay outcome: CC(C)C(=O)C(C)C
Response: f

Request: Query: recorded result category for CCOC(=O)c1ccccc1C(=C1C=C(Br)C(=O)C(Br)=C1)c1cc(Br)c(O)c(Br)c1 in this test
Response: f

Request: Which outcome did this test record for the molecule C=CCOc1c(Br)cc(Br)cc1Br ?
Response: t

Request: What was the test verdict on CCCCCCCCCCCCCCCC[N+](C)(C)CC ?
Response: t

Request: Please state the recorded outcome for this molecule: CCCCNc1ccc(NCCCC)c2c1C(=O)c1ccccc1C2=O
Response: f

Request: Assay outcome for CCO[Si](C)(OCC)OCC : what was it?
Response: f

Request: Recorded test outcome, item CCCCC(CC)COC(=O)c1ccccc1O (centres undefined)
Response: f

Request: Which outcome did this test record for the molecule C=CCOCC(O)CCl (centres undefined) ?
Response: f

Request: Per the records of this test, what outcome belongs to Nc1ccc(N)c(Cl)c1 ?
Response: f

Request: State the result this test recorded for CC1OC1C1CCC2(C)OC2C1 (centres undefined) .
Response: f
